Where these numbers come from: patent US11066447B2

Tested on: A. fumigatus MMX 5280 ATCC MYA-3626
Experiment: MIC/MEC assay (CLSI microdilution)
Format: cell-based, Aspergillus fumigatus
Conditions: Aspergillus fumigatus, 48 h, RPMI plus 0.002% Tween-80, read-out: MIC
Numbered stars: 1 amine (or outer) side, 2 acyl side, 3 side chain; on linkers, the order of the positions; unused ones are H or OH. Square brackets hold non-standard residues; d marks the D form. Peptide text beside a SMILES is read from it. ξ: configuration not given here. X1 = CC(C)N1CCN(c2ccc(-c3cccc(C[C@@H](C(=O)[*:2])N(C)[*:1])c3)cc2)CC1; X21 = CC1CCN(c2cc(-c3cccc(C[C@@H](C(=O)[*:2])N(C)[*:1])c3)ccn2)CC1; X14 = CN([C@@H](Cc1cccc(-c2ccc3ncccc3c2)c1)C(=O)[*:2])[*:1]; Hmp(2R,3S) = CC[C@H](C)[C@@H](O)C(=O)O; NMeVal(β-OH) = CN[C@H](C(=O)O)C(C)(C)O; X6 = CCC(C)[C@@H](O[*:1])C(=O)[*:2]; Ile(3ξ) = CCC(C)[C@H](N)C(=O)O; NMeV = CN[C@H](C(=O)O)C(C)C
// reported MIC for each item listed

As a guide, the following entries are already answered.
CCC(C)[C@@H]1NC(=O)[C@@H]2CCCN2C(=O)[C@H](Cc2cccc(-c3ccc4ncccc4c3)c2)N(C)C(=O)[C@H](Cc2ccccc2)NC(=O)[C@H](C(C)C)N(C)C(=O)[C@@H](C(C)CC)OC(=O)[C@H](C(C)(C)O)N(C)C(=O)[C@H](CC(C)C)NC(=O)[C@H](C(C)C)N(C)C1=O (stereo partly drawn) [Compound 18] (cyclo(F[X14]P[Ile(3ξ)][NMeV]L[NMeVal(β-OH)][X6][NMeV])); > 64 µg/mL
CC[C@H](C)[C@@H]1NC(=O)[C@@H]2CCCN2C(=O)[C@H](Cc2cccc(-c3ccc(N4CCN(C(C)C)CC4)cc3)c2)N(C)C(=O)[C@H](Cc2ccccc2)NC(=O)[C@H](C(C)C)N(C)C(=O)[C@@H]([C@@H](C)CC)OC(=O)[C@H](C(C)(C)O)N(C)C(=O)[C@H](CC(C)C)NC(=O)[C@H](C(C)C)N(C)C1=O [Compound 25] (cyclo(F[X1]PI[NMeV]L[NMeVal(β-OH)][Hmp(2R,3S)][NMeV])); 0.12 µg/mL

Proceed to the following item.
# input // map CC[C@H](C)[C@@H]1NC(=O)[C@@H]2CCCN2C(=O)[C@H](Cc2cccc(-c3ccnc(N4CCC(C)CC4)c3)c2)N(C)C(=O)[C@H](Cc2ccccc2)NC(=O)[C@H](C(C)C)N(C)C(=O)[C@@H]([C@@H](C)CC)OC(=O)[C@H](C(C)(C)O)N(C)C(=O)[C@H](CC(C)C)NC(=O)[C@H](C(C)C)N(C)C1=O [Compound 23] (cyclo(F[X21]PI[NMeV]L[NMeVal(β-OH)][Hmp(2R,3S)][NMeV])) to recorded MIC (system: A. fumigatus MMX 5280 ATCC MYA-3626)
# output > 64 µg/mL
